# measurement-target: 5-hydroxytryptamine receptor 5A (Homo sapiens) (UniProt P47898)
# Sequence (P47898 whole entry): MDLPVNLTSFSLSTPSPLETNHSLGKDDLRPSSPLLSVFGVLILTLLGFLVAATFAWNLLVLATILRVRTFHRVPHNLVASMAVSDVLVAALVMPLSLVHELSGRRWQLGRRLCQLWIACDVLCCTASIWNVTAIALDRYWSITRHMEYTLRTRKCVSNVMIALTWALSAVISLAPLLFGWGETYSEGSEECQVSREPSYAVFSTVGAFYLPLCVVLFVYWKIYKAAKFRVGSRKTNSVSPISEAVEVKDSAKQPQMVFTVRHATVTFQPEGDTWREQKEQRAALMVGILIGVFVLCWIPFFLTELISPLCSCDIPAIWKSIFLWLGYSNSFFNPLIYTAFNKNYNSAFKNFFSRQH
# details: Compound concentration 10 µM; call rule not given here
Outcomes: active, inactive

{"smiles-data": "CCCCCCCCCCCCC/C=C/[C@@H](O)[C@@H](N)COP(=O)(O)O", "discrete-label": "inactive"}
{"smiles-data": "COc1ccccc1CN[C@H]1C2CCN(CC2)[C@H]1C(c1ccccc1)c1ccccc1", "discrete-label": "inactive"}
{"smiles-data": "CN1C[C@H](C(=O)N[C@]2(C)O[C@@]3(O)[C@@H]4CCCN4C(=O)[C@H](Cc4ccccc4)N3C2=O)C[C@@H]2c3cccc4[nH]cc(c34)C[C@H]21", "discrete-label": "active"}
{"smiles-data": "Cc1nc(C(=O)N2CCC[C@H]2Cc2nnc(-c3ccccc3)o2)c(-c2ccccc2F)s1", "discrete-label": "inactive"}

----------
# measurement-target: 5-hydroxytryptamine receptor 1B (Homo sapiens) (UniProt P28222)
# Sequence (P28222 whole entry): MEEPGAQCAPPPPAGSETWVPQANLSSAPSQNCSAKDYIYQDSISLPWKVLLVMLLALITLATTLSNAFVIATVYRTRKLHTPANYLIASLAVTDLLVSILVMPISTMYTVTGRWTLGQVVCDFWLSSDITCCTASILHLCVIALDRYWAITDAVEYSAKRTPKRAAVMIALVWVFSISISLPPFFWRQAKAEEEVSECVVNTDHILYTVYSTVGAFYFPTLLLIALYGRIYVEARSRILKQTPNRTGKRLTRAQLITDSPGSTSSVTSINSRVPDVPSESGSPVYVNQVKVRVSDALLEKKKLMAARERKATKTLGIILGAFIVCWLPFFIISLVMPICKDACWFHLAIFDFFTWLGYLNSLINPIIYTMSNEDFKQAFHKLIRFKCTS
# details: Compound concentration 10 µM
# Description: PDSP Primary Binding target: HTR1B - Compounds are tested at 10 uM concentration, plate are incubated at room temperature in the dark for 90 minutes. Reaction are stopped by vacuum filtration onto 0.3% polyethyleneimine soaked filter mats using Filtermate harvester. Scintilation cocktail is then melted onto microwave-dried filters on a hot plate and the radio activity is counted in Microbia counter.
As shown below, each of these compounds has a reported inhibition value.

{"compound": "c1ccc(N2CCN(Cc3nc4ccccc4[nH]3)CC2)nc1", "inhibition [%]": 6.19}
{"compound": "CC(C)NCC(O)COc1cccc2[nH]ccc12 (stereo not drawn)", "inhibition [%]": 22}
{"compound": "O=c1ccc2ccc(OCCCCN3CCN(c4cccc5sccc45)CC3)cc2[nH]1", "inhibition [%]": 99}
{"compound": "O=C(O)CC1CCC2(CC1)CCN(c1cc(OC(F)(F)F)ccc1Cl)CC2", "inhibition [%]": -0.21}
{"compound": "N#Cc1cccc(C(=O)Nc2cc(-c3ccccc3)nn2-c2ccccc2)c1", "inhibition [%]": 23.3}
{"compound": "N#Cc1c[nH]c2c(C(=O)N3CCN(CCc4ccc(F)cc4)CC3)cccc12", "inhibition [%]": -5.18}
{"compound": "N#Cc1c(O)nc(SCc2cccc(F)c2F)nc1C1CC1", "inhibition [%]": -9.63}
{"compound": "O=C(O)c1cc(-c2ccc(C3CCNCC3)cc2)c2ccc(-c3ccc(C(F)(F)F)cc3)cc2c1", "inhibition [%]": 73.7}
{"compound": "CC(C)NCC(O)COc1cccc2ccccc12 (stereo not drawn)", "inhibition [%]": 9.59}
{"compound": "C[C@@H](N)Cc1c[nH]cn1", "inhibition [%]": 5.1}
{"compound": "N#Cc1c(N)nc(SCc2csc(-c3ccc(Cl)cc3)n2)c(C#N)c1-c1ccc(OCCO)cc1", "inhibition [%]": 13}
{"compound": "CN1C(=O)[C@@H](NC(=O)c2cc3ccccc3[nH]2)N=C(c2ccccc2)c2ccccc21", "inhibition [%]": 27.2}
{"compound": "Cc1cc(NC(=O)NCCN2CCC(O)(Cc3ccccc3)CC2)c2ccccc2n1", "inhibition [%]": 11.5}
{"compound": "Cc1c(F)cccc1NC(=O)Nc1ccc(Cl)c(S(=O)(=O)[C@H]2CCCNC2)c1O", "inhibition [%]": 8.6}
{"compound": "NC[C@H](O)c1ccc(O)c(O)c1", "inhibition [%]": 10.7}
{"compound": "O=c1ccn([C@@H]2O[C@H](COP(=O)(O)OP(=O)(O)O)[C@@H](O)[C@H]2O)c(=O)[nH]1", "inhibition [%]": 1.75}
{"compound": "CCCn1c(=O)c2nc(C34CC5CC(CC3C5)C4)[nH]c2n(CCC)c1=O", "inhibition [%]": 19.3}
{"compound": "COc1cc2nc(N3CCN(C(=O)c4ccco4)CC3)nc(N)c2cc1OC", "inhibition [%]": 27.2}
{"compound": "CC1(C)SSC(C)(C)[C@@H](NC(=O)[C@@H](N)Cc2ccc(O)cc2)C(=O)NCC(=O)N[C@@H](Cc2ccccc2)C(=O)N[C@H]1C(=O)O", "inhibition [%]": 7.79}
{"compound": "NC(=O)[C@@H]1CCCN1C(=O)[C@H](Cc1c[nH]cn1)NC(=O)[C@@H]1CCC(=O)N1", "inhibition [%]": 7.27}
{"compound": "Clc1ccc(CCCOCCCN2CCCCC2)cc1", "inhibition [%]": 12.1}
{"compound": "Cc1csc(NC(=O)c2cc(F)cc(Oc3cncnc3)c2)n1", "inhibition [%]": -4.65}
{"compound": "CCc1nn(CCCN2CCN(c3cccc(Cl)c3)CC2)c(=O)n1CCOc1ccccc1", "inhibition [%]": 88}
{"compound": "O=C(Cc1ccc(Cl)c(Cl)c1)N1CCCC[C@H]1CN1CCCC1", "inhibition [%]": 10.4}
{"compound": "N[C@H](C(=O)O)c1ccc(C(=O)O)c(C(=O)O)c1", "inhibition [%]": -2.1}
{"compound": "COc1ccccc1N1CCN(CCCCNC(=O)c2ccc3ccccc3c2)CC1", "inhibition [%]": 93.2}
{"compound": "COc1ccc(Br)cc1S(=O)(=O)NC(=O)/C=C/c1ccccc1Cc1ccc2ccccc2c1", "inhibition [%]": 3.55}
{"compound": "Nc1nc(NCCc2ccc(O)cc2)nc2nc(-c3ccco3)nn12", "inhibition [%]": 27}
{"compound": "COc1ccc(OC(F)(F)F)cc1CN[C@H]1CCCN[C@H]1c1ccccc1", "inhibition [%]": 10}
{"compound": "COc1cccc([C@H](O)C2CCN(CCc3ccc(F)cc3)CC2)c1OC", "inhibition [%]": 27.7}
{"compound": "COc1cccc([C@@H](C)NCCCc2ccccc2Cl)c1", "inhibition [%]": 22.4}
{"compound": "CN(C(=O)Cc1ccc(Cl)c(Cl)c1)C(CN1CCCC1)c1cccc(OCC(=O)O)c1 (stereo not drawn)", "inhibition [%]": 11.1}
{"compound": "CCCn1c(=O)c2[nH]c(-c3cnn(Cc4cccc(C(F)(F)F)c4)c3)nc2n(CC)c1=O", "inhibition [%]": 13.9}

Data provenance is ChEMBL document CHEMBL5442219.
